# ASSAY PROTOCOL: LC retention time (Atlantis T3, 5-95% MeOH gradient, 0.1% formic acid); higher = more retained / less polar
What LC retention time was measured for each of the following?
Give bare numbers, in min.

Some solved entries appear below for comparison.
- MOLECULE: "O=S(=O)([O-])NC1CCCCC1 [Cyclamat]"
  ASSAY RESULT: 14.3
- MOLECULE: "Cc1c(NC=O)c(=O)n(-c2ccccc2)n1C [4-Formylaminoantipyrin (=4-FAA)]"
  ASSAY RESULT: 11.7
- MOLECULE: "Cc1ccc(-c2c(Cl)nc(C#N)n2S(=O)(=O)N(C)C)cc1 [Cyazofamid]"
  ASSAY RESULT: 20.3
- MOLECULE: "C[Si](Cn1cncn1)(c1ccc(F)cc1)c1ccc(F)cc1 [Flusilazol]"
  ASSAY RESULT: 20.4

Can you give me LC retention time for all of these, one by one?
1. [NH3+]C(CO)(CO)CO [Trometamol]
2. CC(C)c1nc(N(C)S(C)(=O)=O)nc(-c2ccc(F)cc2)c1C=CC(O)CC(O)CC(=O)[O-] (centres undefined) [Rosuvastatin]
3. CC(O)(CS(=O)(=O)c1ccc(F)cc1)C(=O)Nc1ccc(C#N)c(C(F)(F)F)c1 (centres undefined) [Bicalutamid]
4. CCCOC(=O)NCCC[NH+](C)C [Propamocarb]
5. O=C([O-])C[N-]S(=O)(=O)C(F)(F)C(F)(F)C(F)(F)C(F)(F)C(F)(F)C(F)(F)C(F)(F)C(F)(F)F [FOSAA]

1. 2.85
2. 18.3
3. 18.6
4. 8.99
5. 22.2
